RP-LC retention time overview
- experiment description: gradient 5% acetonitrile 3 min, to 50% in 2 min, to 85% in 15 min, held 3 min, 100 µL/min
- measurement setup: column: Zorbax Extend-C18 2.1 x 50 mm; eluents: water / acetonitrile, 0.1% formic acid
Give the quantity in s, number only.

Check out these entries, answers already filled in.
CCc1cc(=O)n(CC(=O)Nc2ccc(C(F)(F)F)cc2)c(N2CCOCC2)n1	849
COc1ccccc1N1CCN(c2cc(SCC(=O)Nc3cc(F)ccc3Cl)ncn2)CC1	1190
O=c1c2c(CO)c(-c3ccccc3)nn2ccn1Cc1cccc(F)c1	920

# context switch: different molecule, same RP-LC retention time
Output RP-LC retention time of Cc1cccc(NC(=O)C2CCN(S(C)(=O)=O)c3cc(Cl)ccc3O2)c1C (stereo not given)
1090
